assay: melting temperature; fluorescence melt of hairpins on a sequencing array, two-state fit, raised by 9.35 °C to match UV melts; details: sodium 0.088 M
Attribute measured: Tm (°C)

                         record_sequence  attribute_measured  value_units  numeric_readout
0  GTTAATCGAAAGATAAAC (((.(((....))).)))                  Tm           °C             31.6
1  GAGAGTCCGAAAGGACTC (((..(((....))))))                  Tm           °C             60.4
2  GCAAAGCGAAAGCTCAGC ((..(((....)))..))                  Tm           °C             33.6
3  GTGCCGGCGAAAGCCCAC (((..(((....))))))                  Tm           °C             59.9
4      GATCTTAAGAAAGATC ((((((....))))))                  Tm           °C               36
5  GCCGTAGGAAACTACGAC (.(((((....))))).)                  Tm           °C             40.8
